- Organism: Homo sapiens
- Experiment Notes: In vitro inhibition of histamine release from human basophils
- Format: functional, organism-based
- Recorded Conditions: Homo sapiens
pIC50: −log10 of the molar value.
Value Type: pIC50

NS(=O)(=O)c1cccc(Nc2nccc(-c3ccncc3)n2)c1 ... 6.30
CN(C)c1cccc(Nc2nccc(-c3cccs3)n2)c1 ... 5.62
CCc1ccc(Nc2nccc(-c3cnccn3)n2)cc1 ... 5.72
Cc1cc(-c2ccnc(Nc3ccc(N(C)C)cc3)n2)c(C)o1 ... 5.31
CN(C)c1ccc(Nc2nccc(-c3ccsc3)n2)cc1 ... 5.68
CC(C)(C)c1ccc(Nc2nccc(-c3cccnc3)n2)cc1 ... 6.22
CC1CCN(c2ccc(Nc3nccc(-c4ccco4)n3)cc2)CC1 ... 5.74
CNc1ccc(Nc2nccc(-c3cccnc3)n2)cc1 ... 5.68

a: Cc1cc(C)cc(Nc2nccc(-c3ccco3)n2)c1
b: CCOC(=O)c1cccc(Nc2nccc(-c3ccccn3)n2)c1
c: COc1cccc(Nc2nccc(-c3ccc(C)o3)n2)c1
d: c1ccc(Nc2nccc(-c3cccs3)n2)cc1
Query: Your job: order these 4 records by pIC50, ascending. Kindly provide the labels arranged according to the requested ordering.
Result: d, b, c, a
(d: 4.50, b: 5.52, c: 5.82, a: 6.15)
